Quick reference for inhibition among some compounds
target: Mitogen-activated protein kinase kinase kinase kinase 1 (Homo sapiens); experiment: Inhibition of HPK1 (unknown origin) at 1 uM using myelin basic protein as substrate incubated for 60 mins in presence of ATP by ADP-Glo kinase assay relative to control
Sequence (Q92918 whole entry, looked up): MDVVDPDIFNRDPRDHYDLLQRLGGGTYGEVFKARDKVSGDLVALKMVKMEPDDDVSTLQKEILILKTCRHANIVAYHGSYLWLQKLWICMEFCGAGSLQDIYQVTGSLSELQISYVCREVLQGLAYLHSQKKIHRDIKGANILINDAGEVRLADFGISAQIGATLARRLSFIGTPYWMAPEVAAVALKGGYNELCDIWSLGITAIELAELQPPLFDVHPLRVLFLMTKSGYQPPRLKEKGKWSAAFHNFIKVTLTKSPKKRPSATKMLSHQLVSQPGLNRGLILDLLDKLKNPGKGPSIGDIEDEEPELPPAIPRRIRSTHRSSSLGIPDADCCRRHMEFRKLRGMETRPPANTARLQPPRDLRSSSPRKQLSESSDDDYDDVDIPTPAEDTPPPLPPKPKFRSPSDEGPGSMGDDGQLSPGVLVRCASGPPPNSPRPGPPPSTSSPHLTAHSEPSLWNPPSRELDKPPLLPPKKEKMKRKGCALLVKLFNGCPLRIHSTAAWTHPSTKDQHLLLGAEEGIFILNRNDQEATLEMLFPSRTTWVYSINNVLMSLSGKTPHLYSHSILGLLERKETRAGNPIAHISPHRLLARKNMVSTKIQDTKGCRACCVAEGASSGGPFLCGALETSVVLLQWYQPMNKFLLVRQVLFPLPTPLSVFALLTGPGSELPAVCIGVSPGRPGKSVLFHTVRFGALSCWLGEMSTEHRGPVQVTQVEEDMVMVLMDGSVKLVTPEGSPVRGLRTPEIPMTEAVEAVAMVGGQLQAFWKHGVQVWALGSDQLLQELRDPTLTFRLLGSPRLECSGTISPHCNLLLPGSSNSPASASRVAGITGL
Observation Type: inhibition (%)

[[record]]
structure_smiles = "Nc1cc(-c2ccncc2)cc2nc(Nc3cnn(C4CC4)c3)ncc12"
measured_number = 24.1

[[record]]
structure_smiles = "Cc1cncc(-c2cc(N)c3cnc(Nc4cnn(C5CC5)c4)nc3c2)c1"
measured_number = 87.6

[[record]]
structure_smiles = "Cn1cc(-c2cc(N)c3cnc(Nc4cnn(C5CC5)c4)nc3c2)cn1"
measured_number = 95.8

[[record]]
structure_smiles = "Nc1cc(-c2ccccc2)cc2nc(Nc3cnn(C4CC4)c3)ncc12"
measured_number = 33.6

[[record]]
structure_smiles = "Nc1cc(-c2ccccn2)cc2nc(Nc3cnn(C4CC4)c3)ncc12"
measured_number = 30.3

[[record]]
structure_smiles = "COc1ncc(-c2cc(N)c3cnc(Nc4cnn(C5CC5)c4)nc3c2)cc1N"
measured_number = 60.6

[[record]]
structure_smiles = "Cc1ccc(-c2cc(N)c3cnc(Nc4cnn(C5CC5)c4)nc3c2)cn1"
measured_number = 85.9

[[record]]
structure_smiles = "N#Cc1ccncc1-c1cc(N)c2cnc(Nc3cnn(C4CC4)c3)nc2c1"
measured_number = 85.5

[[record]]
structure_smiles = "Cc1ccncc1-c1cc(N)c2cnc(Nc3cnn(C4CC4)c3)nc2c1"
measured_number = 98.1


###

molecular target: Mitogen-activated protein kinase kinase kinase kinase 1 (Homo sapiens); experiment: Inhibition of HPK1 in human Jurkat E6.1 cells assessed as phosphorylation of SLP76 at serine 376 residue incubated for 4 hrs by HTRF assay; type: cell-based
Sequence (Q92918 whole entry): as the sequence (Q92918 whole entry, looked up) above
Observation Type: IC50

[[record]]
structure_smiles = "CN1CCC(c2ncc(-c3cnc(N)c(OCc4cccc(C#CC(C)(C)O)c4)c3)s2)CC1"
target_or_test_system = "Mitogen-activated protein kinase kinase kinase kinase 1 (Homo sapiens)"
result = "< 100 nM"


###

biological target: Mitogen-activated protein kinase kinase kinase kinase 1 (Homo sapiens); test: Inhibition of HPK1 (unknown origin) at 100 nM using myelin basic protein as substrate incubated for 60 mins in presence of ATP by ADP-Glo kinase assay relative to control
So basically: inhibition at 60% or higher? That is yes (1). Lower than 60%? That is no (0).

[[record]]
structure_smiles = "Nc1cc(-c2ccccc2)cc2nc(Nc3cnn(C4CC4)c3)ncc12"
label = "no (0)"

[[record]]
structure_smiles = "COc1ncc(-c2cc(N)c3cnc(Nc4cnn(C5CC5)c4)nc3c2)cc1N"
label = "no (0)"

[[record]]
structure_smiles = "Cc1c(-c2cc(N)c3cnc(Nc4cnn(C5CC5)c4)nc3c2)cnn1C"
label = "no (0)"

[[record]]
structure_smiles = "Cc1ccc(-c2cc(N)c3cnc(Nc4cnn(C5CC5)c4)nc3c2)cn1"
label = "no (0)"

[[record]]
structure_smiles = "Cc1c(-c2cc(N)c3cnc(Nc4cnn(C5CC5)c4)nc3c2)cnc2c1NCCO2"
label = "yes (1)"

[[record]]
structure_smiles = "Cn1nccc1-c1cc(N)c2cnc(Nc3cnn(C4CC4)c3)nc2c1"
label = "no (0)"

[[record]]
structure_smiles = "Cc1c(N)cncc1-c1cc(N)c2cnc(Nc3cnn(C4CC4)c3)nc2c1"
label = "yes (1)"

[[record]]
structure_smiles = "Cn1cc(-c2cc(N)c3cnc(Nc4cnn(C5CC5)c4)nc3c2)cn1"
label = "yes (1)"

[[record]]
structure_smiles = "Nc1cc(-c2cccnc2)cc2nc(Nc3cnn(C4CC4)c3)ncc12"
label = "no (0)"

[[record]]
structure_smiles = "Cc1nn(C)cc1-c1cc(N)c2cnc(Nc3cnn(C4CC4)c3)nc2c1"
label = "no (0)"


###

molecular target: Mitogen-activated protein kinase kinase kinase kinase 1 (Homo sapiens, UniProt Q92918); test: Inhibition of HPK1 in human PBMC cells assessed as increase in IL-2 release preincubated with compound for 1 hr followed by stimulation with CD3/CD28-dynabead measured after 16 to 18 hrs by ELISA assay
Observation Type: EC50 (µM)

[[record]]
structure_smiles = "Cc1c(-c2cc3cc(NC(=O)C4CC4)ncc3c(N)c2F)cnc2c1NCCO2"
target_or_test_system = "Mitogen-activated protein kinase kinase kinase kinase 1 (Homo sapiens, UniProt Q92918)"
observation_type = "EC50"
value_units = "µM"
measured_number = 0.016


###

biological target: Mitogen-activated protein kinase kinase kinase kinase 1 (Homo sapiens); test: Inhibition of HPK1 in human Jurkat E6.1 cells assessed as reduction in SLP76 phosphorylation at Serine 376 residue preincubated with compound for 2 hrs followed by stimulation with alphaCD3/CD28 measured after 10 mins by Western blotting analysis; type: cell-based
pIC50: −log10 of the molar value.
Observation Type: pIC50

[[record]]
structure_smiles = "Cc1c(-c2cc(N)c3cnc(Nc4cnn(C5CC5)c4)nc3c2)cnc2c1NCCO2"
observation_type = "pIC50"
measured_number = 7.64

[[record]]
structure_smiles = "Cc1c(-c2cc3cc(NC(=O)C4CC4)ncc3c(N)c2F)cnc2c1NCCO2"
observation_type = "pIC50"
measured_number = 8.21


###

// reported inhibition for each item listed
biological target: Mitogen-activated protein kinase kinase kinase kinase 1 (Homo sapiens); assay: Inhibition of HPK1 (unknown origin) at 100 nM using myelin basic protein as substrate incubated for 60 mins in presence of ATP by ADP-Glo kinase assay relative to control
Observation Type: inhibition (%)

[[record]]
structure_smiles = "N#Cc1ccncc1-c1cc(N)c2cnc(Nc3cnn(C4CC4)c3)nc2c1"
target_or_test_system = "Mitogen-activated protein kinase kinase kinase kinase 1 (Homo sapiens)"
measured_number = 36.3

[[record]]
structure_smiles = "CC1(C)OC(=O)c2ccc(Nc3ncc(-c4nnco4)c(N[C@H](CO)c4ccccc4)n3)cc21"
target_or_test_system = "Mitogen-activated protein kinase kinase kinase kinase 1 (Homo sapiens)"
measured_number = 92.5

[[record]]
structure_smiles = "Cc1cncc(-c2cc(N)c3cnc(Nc4cnn(C5CC5)c4)nc3c2)c1"
target_or_test_system = "Mitogen-activated protein kinase kinase kinase kinase 1 (Homo sapiens)"
measured_number = 42.7

[[record]]
structure_smiles = "Cc1nn(C)c(C)c1Nc1ncc2c(N)cc(-c3cnc4c(c3C)NCCO4)cc2n1"
target_or_test_system = "Mitogen-activated protein kinase kinase kinase kinase 1 (Homo sapiens)"
measured_number = 7.5

[[record]]
structure_smiles = "Cc1c(-c2cc3cc(NC(=O)C4CC4)ncc3c(N)c2F)cnc2c1NCCO2"
target_or_test_system = "Mitogen-activated protein kinase kinase kinase kinase 1 (Homo sapiens)"
measured_number = 97.9

[[record]]
structure_smiles = "Nc1cc(-c2ccccn2)cc2nc(Nc3cnn(C4CC4)c3)ncc12"
target_or_test_system = "Mitogen-activated protein kinase kinase kinase kinase 1 (Homo sapiens)"
measured_number = -6.9

[[record]]
structure_smiles = "Cc1ccncc1-c1cc(N)c2cnc(Nc3cnn(C4CC4)c3)nc2c1"
target_or_test_system = "Mitogen-activated protein kinase kinase kinase kinase 1 (Homo sapiens)"
measured_number = 87.2

[[record]]
structure_smiles = "Nc1cncc(-c2cc(N)c3cnc(Nc4cnn(C5CC5)c4)nc3c2)c1"
target_or_test_system = "Mitogen-activated protein kinase kinase kinase kinase 1 (Homo sapiens)"
measured_number = 80

[[record]]
structure_smiles = "Cc1c(-c2cc(N)c3cnc(NC(=O)C4CC4)nc3c2)cnc2c1NCCO2"
target_or_test_system = "Mitogen-activated protein kinase kinase kinase kinase 1 (Homo sapiens)"
measured_number = 4.7

[[record]]
structure_smiles = "Nc1cc(-c2ccncc2)cc2nc(Nc3cnn(C4CC4)c3)ncc12"
target_or_test_system = "Mitogen-activated protein kinase kinase kinase kinase 1 (Homo sapiens)"
measured_number = -3.3


###

target: Mitogen-activated protein kinase kinase kinase kinase 1 (Homo sapiens); assay: Inhibition of HPK1 (unknown origin) using myelin basic protein as substrate incubated for 60 mins in presence of ATP by ADP-Glo kinase assay
pIC50: −log10 of the molar value.
Observation Type: pIC50

[[record]]
structure_smiles = "Nc1cncc(-c2cc(N)c3cnc(Nc4cnn(C5CC5)c4)nc3c2)c1"
measured_number = 7.48

[[record]]
structure_smiles = "Cc1c(-c2cc(N)c3cnc(Nc4cnn(C(C)C)c4)nc3c2)cnc2c1NCCO2"
measured_number = 8.19

[[record]]
structure_smiles = "CNCc1ccc(Nc2ncc3c(N)cc(-c4cnc5c(c4C)NCCO5)cc3n2)cc1"
measured_number = 8.37

[[record]]
structure_smiles = "Cc1c(-c2cc(N)c3cnc(Nc4ccc5c(c4)CN(C(C)C)CC5)nc3c2)cnc2c1NCCO2"
measured_number = 8.28

[[record]]
structure_smiles = "Cc1c(-c2cc(N)c3cnc(Nc4ccccn4)nc3c2)cnc2c1NCCO2"
measured_number = 7.02

[[record]]
structure_smiles = "Cc1c(-c2cc(N)c3cnc(Nc4cnn(C5CC5)c4)nc3c2)cnn1C"
measured_number = 7.21

[[record]]
structure_smiles = "Cc1c(-c2cc(N)c3cnc(Nc4ccncc4)nc3c2)cnc2c1NCCO2"
measured_number = 8.24

[[record]]
structure_smiles = "Cc1c(N)cncc1-c1cc(N)c2cnc(Nc3cnn(C4CC4)c3)nc2c1"
measured_number = 7.98

[[record]]
structure_smiles = "Cc1c(-c2cc(N)c3cnc(Nc4ccn(C)n4)nc3c2)cnc2c1NCCO2"
measured_number = 7.90

[[record]]
structure_smiles = "CNCc1cccc(Nc2ncc3c(N)cc(-c4cnc5c(c4C)NCCO5)cc3n2)c1"
measured_number = 8.30


Measured values drawn from ChEMBL document CHEMBL5321199 for this set.
